The reported numbers originate from PubChem BioAssay AID1996.

# settings: buffer; pH 7.4; 200.0 µM

{"columns": ["compound", "solubility kinetic"],
 "data": [
  ["Cc1noc(C)c1CSc1ccccc1C(=O)O", "> 39.5 µg/mL"],
  ["COc1ccc(CCNC(=O)C(C)SCC(=O)Nc2ccc(F)cc2)cc1 (stereo not given)", "> 58.6 µg/mL"],
  ["NC(=O)C1CCCN(C(=O)CCCNC(=O)c2ccc(Cl)cc2)C1 (stereo not given)", "> 52.8 µg/mL"],
  ["CC(C[N+](C)(C)C)OC(N)=O.[Cl-] (stereo not given)", "> 29.5 µg/mL"],
  ["Cl.N=c1ccn(Cc2cccc(F)c2)cc1", "30.8 µg/mL"]
]}
